# reported growth inhibition; entries follow
Assay Notes: NCI Yeast Anticancer Drug Screen. Data for the sgs1 mgt1 strain (AID 161);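 also: 0% = growth of cultures given vehicle only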
Conditions Used: S. cerevisiae sgs1 mgt1 strain, at 50.0 µM, hits give high values
This is part of a sample that, as a whole, favours compounds with a hit. Of some 79,000 tested, about 15% had one in any assay.
Measured Parameter: growth inhibition (%)

compound=CCOC(=O)/C(C#N)=N/Nc1ccc(S(=O)(=O)NC(C)=O)cc1 value_measured=5.8
compound="CCCCN(CCCC)CC(O)c1cc(-c2ccc(C(F)(F)F)cc2)nc(-c2ccc(C(F)(F)F)cc2)c1 (stereo not drawn)" value_measured=2.2
compound=CC(C)(Cc1ccccc1)C(=C=C=C=C(c1ccccc1)C(C)(C)Cc1ccccc1)c1ccccc1 value_measured=-32.2
compound="CN(C)C1C=CS(=O)(=O)C1 (stereo not drawn)" value_measured=-4.4
compound="O=C1N(c2ccccc2)C(=O)C2(SC=NN2Cc2ccccc2)N1c1ccccc1 (stereo not drawn)" value_measured=-18.6
compound=CC(=O)N(C)C value_measured=12.9
compound=CCCCC(C)(CCN)CCCC value_measured=-5.05
compound=N=c1ncn(C/C=C/c2ccccc2)c2nc[nH]c12 value_measured=-8.55
compound=CCC(=O)OCCCCCCOC(=O)CC value_measured=12.5
compound=CC(=O)OC(C)(C)[C@@H]1CC[C@H](C)C2=C(C1)[C@@H](C)CC2 value_measured=-23.9
compound="CC1(C)CC(C(N)=O)C(=O)O1 (stereo not drawn)" value_measured=-21.6
compound=Nc1nc(-c2cccc([N+](=O)[O-])c2)c(N=Nc2ccc(Br)cc2)s1 value_measured=23.1
compound=O=C(Oc1ccc2ccccc2c1)c1ccccc1 value_measured=28.4
compound=CCc1c(O)c2c(c(O)c1C(C)=O)C(=O)c1c(cc(O)c(C(=O)O)c1C(=O)O)C2=O value_measured=24.2
compound=O=C1/C(=C/c2ccccc2)CCc2ccc([N+](=O)[O-])cc21 value_measured=8.25
compound="CC(COc1ccc(Cl)cc1)OS(=O)(=O)CCCl (stereo not drawn)" value_measured=-16.1
compound=Oc1cccc2nc3cc(CN4CCOCC4)c(CN4CCOCC4)cc3nc12 value_measured=-1.05
compound=NC1=NS(=O)(=O)Nc2nc(-c3ccccc3)c(-c3ccccc3)nc21 value_measured=12.5

====

Assay Notes: NCI Yeast Anticancer Drug Screen. Data for the mec2-1 strain (AID 157)
Conditions Used: S. cerevisiae mec2-1 strain, at 50.0 µM
This is part of a sample that, as a whole, favours compounds with a hit. Of some 79,000 tested, about 15% had one in any assay. Activity calls are given as the source filed them. Rule as the data show it: active = growth inhibition above about 70%; inactive = the rest.
Classes used: true for active, false for inactive

molecule="CC(Nc1ccc(Cl)c(Cl)c1)C1CCOC1=O (stereo not drawn)" class_assignment=true
molecule=Nc1ccc(N(S(=O)(=O)c2ccccc2)S(=O)(=O)c2ccccc2)nc1 class_assignment=false
molecule=COc1ccc(C=Nc2ccc3c(c2)OCO3)cc1Br class_assignment=false
molecule=O=C(/C=C/c1ccccc1)Nc1ccc([N+](=O)[O-])cc1Cl class_assignment=false
molecule=CCN(CC)Cc1ncccc1O class_assignment=false
molecule="CCN(C(=O)c1ccc([N+](=O)[O-])cc1)C(c1ccccc1)P(=O)(c1ccccc1)c1ccccc1 (stereo not drawn)" class_assignment=false
molecule=Cc1cc(N2CCCCC2)nc(N2CCCCC2)c1C#N class_assignment=false
molecule=CC1=NN(C(=O)c2ccccc2O)C(=O)/C1=C/c1ccc(O)cc1 class_assignment=false
molecule=NC(=O)/N=C/c1c(O)c2ccccc2oc1=O class_assignment=false
molecule="O=[N+]([O-])c1ccc(Cc2ncnc3c2ncn3C2OC(CO)C(O)C2O)cc1 (stereo not drawn)" class_assignment=false
molecule="Nc1c(-c2ncc[nH]2)ncn1CC(O)C(O)C(O)CO (stereo not drawn)" class_assignment=false
molecule=CCCCCCCCC(C)C class_assignment=false
molecule=CC(C)C(/C=C/c1ccc(Br)cc1)=N\NC(N)=O class_assignment=false
molecule="Cc1ccc(C)c(NC(=O)C2C(=O)C(=O)N(c3cc(C)ccc3C)C2=O)c1 (stereo not drawn)" class_assignment=false
molecule=C=Cc1ccccc1N=NC(C(=O)OC)=P(c1ccccc1)(c1ccccc1)c1ccccc1 class_assignment=false
molecule="CC#CCCCC1(C)CCNC1=S (stereo not drawn)" class_assignment=false
molecule="NCCCNCCCCNC(=O)C(O)NC(=O)CCCCCCN=C(N)N (stereo not drawn)" class_assignment=false
molecule="N#CSC1C=CS(=O)(=O)C1 (stereo not drawn)" class_assignment=false

====

Assay Notes: NCI Yeast Anticancer Drug Screen. Data for the mlh1 rad18 strain (AID 175)
Conditions Used: S. cerevisiae mlh1 rad18 strain growth inhibition; at 50.0 µM; hits give high values
The panel holds about 79,000 compounds, 15% with a hit somewhere; the sample as a whole holds those more often.
Measured Parameter: growth inhibition (%)

compound=COc1ccc(/C=C2/C[N+](C)(C)C/C(=C/c3ccc(OC)cc3)C2=O)cc1 display_unit=% value_measured=-2.25
compound="CC1OC(OC2CCc3c(O)c4c(c(O)c3C2)C(=O)c2ccccc2C4=O)CC(N)C1O (centres undefined)" display_unit=% value_measured=-2.15
compound=O=C(Nc1cc(Br)c2cccc3c2c1CC3)c1ccccc1 display_unit=% value_measured=-0.95
compound=O=C(/C=C/c1ccccc1)Nc1ccc([N+](=O)[O-])cc1Cl display_unit=% value_measured=18.5
compound="N=C(N)SCC(O)C(O)CSC(=N)N (centres undefined)" display_unit=% value_measured=-1.5
compound="COC1CC(NC(C)=O)C(O)C(C)O1 (centres undefined)" display_unit=% value_measured=1.5
compound="COc1ccc(C2=Nc3c(nc(SC)[nH]c3=O)NC(c3ccccc3)C2)cc1 (centres undefined)" display_unit=% value_measured=-3.15
compound="OCC(O)C(O)C(O)C(c1ccc(Cl)cc1)c1ccc(Cl)cc1 (centres undefined)" display_unit=% value_measured=35
compound=Oc1c(Cl)cc(Cl)cc1C=Nc1ccc2c(ccc3c4ccccc4ccc23)c1 display_unit=% value_measured=15.1

====

Assay Notes: NCI Yeast Anticancer Drug Screen. Data for the mlh1 rad18 strain (AID 175)
Conditions Used: S. cerevisiae mlh1 rad18 strain growth inhibition; at 50.0 µM; hits give high values
About 79,000 compounds went through this panel and 15% of them were active in at least one assay; those are over-represented in the sample as a whole.
Measured Parameter: growth inhibition (%)

molecule=O=C(O)CCCCCCCCC(=O)O display_unit=% value_measured=-17.6
molecule="COc1ccc(C(c2cc3c(cc2O)OCO3)N2CCN(C(c3ccc(OC)cc3)c3cc4c(cc3O)OCO4)CC2)cc1 (centres undefined)" display_unit=% value_measured=19.8
molecule="CCCC(=O)C(O)CCC (centres undefined)" display_unit=% value_measured=-26.1
molecule="COc1cc2c(cc1O)CCN[C@@]21CS[C@H]2c3c(OC(C)=O)c(C)c4c(c3C(COC1=O)N1C2C2NC(Cc3cc(C)c(OC)c(O)c32)[C@@H]1O)OCO4 (some centres undefined)" display_unit=% value_measured=91.2
molecule="CC1(C)C2CC[C@]3(C)C(C(=O)C=C4[C@@H]5C[C@@](C)(C(=O)O)CC[C@]5(C)CCC43C)[C@@]2(C)CC[C@@H]1OC1OC(C(=O)O)C(O)C(O)C1OC1OC(C(=O)O)C(O)C(O)C1O (some centres undefined) (tested in a mixture with another compound)" display_unit=% value_measured=-0.35
molecule=[N-]=[N+]=Nc1ccc(-c2nc(N)nc(N)n2)cc1 display_unit=% value_measured=15.2
molecule=Cc1c(C(=O)O)c2cc3ccccc3cc2c(=O)n1C display_unit=% value_measured=-35
molecule=COC(=O)c1cc(C)n(C)c(=O)c1CNS(=O)(=O)c1ccc(C)cc1 display_unit=% value_measured=-12.3
molecule=CC(C)OC(=O)c1ccc(NCC2=CC(=O)C=CC2=O)cc1 display_unit=% value_measured=88.2
molecule=O=C(Oc1c(Cl)cc([N+](=O)[O-])cc1[N+](=O)[O-])Sc1ccccc1 display_unit=% value_measured=99.5
molecule="CCCCCCCN(CCCCCCC)CC(O)c1c(OC)c2ccccc2c2ccccc12 (centres undefined)" display_unit=% value_measured=93.7
molecule=COCCOC(=O)c1ccc(C(N)=NC2CCCCC2)cc1 display_unit=% value_measured=-0.7
molecule="CC(=O)c1cccc(NC(=O)N2CCCCC2C)c1 (centres undefined)" display_unit=% value_measured=-12.8
molecule=COc1cc(NC(=O)CCN2CCOCC2)c2ncccc2c1 display_unit=% value_measured=43
molecule=S=C(S)N(Cc1ccccc1)Cc1ccccc1 display_unit=% value_measured=36.5
molecule="OC(CNc1ccc(Cl)cc1)CN1CCOCC1 (centres undefined)" display_unit=% value_measured=42
molecule=CSc1nc(NN)c([N+](=O)[O-])c(SC)n1 display_unit=% value_measured=15.6
molecule="CCOC(=O)c1ccc(N(CC(O)CN)S(=O)(=O)c2ccc(C)cc2)cc1 (centres undefined)" display_unit=% value_measured=-1.5
molecule=CN(C)C(=O)CCCCC(=O)N(C)C display_unit=% value_measured=-22.2
molecule=N#Cc1c(-c2ccco2)cc(-c2ccccc2)[nH]c1=O display_unit=% value_measured=25.6
molecule=COc1ccc2nc(N/N=C/C(C)=N/Nc3cc(C)c4cc(OC)ccc4n3)cc(C)c2c1 display_unit=% value_measured=-23.2
molecule=Cc1c2ccnc(C#N)c2c(C)c2c1[nH]c1ccccc12 display_unit=% value_measured=7.5
molecule="COc1cc2c(C)cc(=O)oc2c(OCC(O)CN2CCCC2)c1OC (centres undefined)" display_unit=% value_measured=-5.25
molecule=C[C@H]1CC[C@@H](C(C)(C)O)CC2=C1CC[C@@H]2C display_unit=% value_measured=-26.4

Source: PubChem BioAssay (NCI)
